system_name: BRD9 (Homo sapiens)
Sequence (Q9H8M2 1-597): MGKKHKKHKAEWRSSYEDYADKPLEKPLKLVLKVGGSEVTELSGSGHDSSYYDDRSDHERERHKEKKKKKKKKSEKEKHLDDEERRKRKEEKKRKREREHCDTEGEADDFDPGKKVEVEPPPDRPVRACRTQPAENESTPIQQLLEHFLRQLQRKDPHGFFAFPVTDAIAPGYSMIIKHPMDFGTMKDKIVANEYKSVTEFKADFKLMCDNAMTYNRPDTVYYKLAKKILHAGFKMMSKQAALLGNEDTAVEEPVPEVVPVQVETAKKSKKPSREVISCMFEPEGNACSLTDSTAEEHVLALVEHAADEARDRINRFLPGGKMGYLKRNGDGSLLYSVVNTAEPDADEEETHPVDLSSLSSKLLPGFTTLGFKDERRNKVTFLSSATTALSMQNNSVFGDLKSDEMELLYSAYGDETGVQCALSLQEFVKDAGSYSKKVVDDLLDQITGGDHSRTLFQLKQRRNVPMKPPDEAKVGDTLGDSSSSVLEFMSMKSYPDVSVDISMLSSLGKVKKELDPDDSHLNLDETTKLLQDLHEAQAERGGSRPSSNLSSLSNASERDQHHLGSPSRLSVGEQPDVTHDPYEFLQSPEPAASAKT
protocol_summary: BRD9 degradation, HiBiT-BRD9 KI HEK293 (LgBiT) cells, NanoGlo Lytic Endpoint assay (Assay Protocol 1)
Assay type: cell-based
condition_context: Table 2; BRD9 degradation, Assay Protocol 1; 6 h of treatment; read-out: Assay 1 DC50
outcome_measure: DC50

molecule	experimental_result
COc1cc(-c2cn(C)c(=O)c3cnccc23)cc(OC)c1CN(C)Cc1ccc2c(c1)C(C)N(C(=O)/C(C#N)=C/C(C)(C)C)CC2 (mixture of isomers) [Compound A47]	10 to 25 nM

Supply reported DC50 belonging to this molecule: COc1cc(-c2cn(C)c(=O)c(C)c2C)cc(OC)c1CN1CCN(Cc2cccc3c2CCN(C(=O)/C(C#N)=C/C(C)C)C3C)CC1 (mixture of isomers) [Compound A43]
1.25 to 10 nM

Supply reported DC50 belonging to this molecule: COc1cc(-c2cn(C)c(=O)c(C)c2C)cc(OC)c1CN1CCN(Cc2cccc3c2CCN(C(=O)/C(C#N)=C\c2nc(C)cs2)C3C)CC1 (mixture of isomers) [Compound A21]
< 1.25 nM

Supply reported DC50 belonging to this molecule: COc1cc(-c2cn(C)c(=O)c3cnccc23)cc(OC)c1CN(C)Cc1ccc2c(c1)CCN(C(=O)/C(C#N)=C/C(C)(C)C)C2C (mixture of isomers) [Compound A46]
1.25 to 10 nM

Supply reported DC50 belonging to this molecule: COc1cc(-c2cn(C)c(=O)c3cnccc23)cc(OC)c1CN1CC2CCC(C1)N2Cc1cccc2c1CCN(C(=O)/C(C#N)=C/C(C)(C)C)C2C (mixture of isomers) [Compound A48]
1.25 to 10 nM
